Hello, the source for this data is patent US20120015988A1, in case you need it.

measured_on: human CB2R (Homo sapiens)
Sequence (P34972 whole entry): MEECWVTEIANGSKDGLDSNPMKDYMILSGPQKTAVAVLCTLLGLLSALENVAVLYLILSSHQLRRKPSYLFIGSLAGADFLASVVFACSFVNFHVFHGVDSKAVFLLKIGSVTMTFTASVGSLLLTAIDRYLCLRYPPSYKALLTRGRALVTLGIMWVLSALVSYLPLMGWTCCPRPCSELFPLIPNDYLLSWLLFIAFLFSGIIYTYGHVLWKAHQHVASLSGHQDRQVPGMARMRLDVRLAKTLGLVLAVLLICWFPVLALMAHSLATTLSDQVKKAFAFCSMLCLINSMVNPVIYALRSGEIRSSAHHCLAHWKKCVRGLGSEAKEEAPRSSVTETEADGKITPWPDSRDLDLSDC
experiment: CB2R mediated modulation of cAMP synthesis
measurement_setup: CHO cells expressing human CB2R; concentration at which 50% of the forskolin-stimulated cAMP synthesis was inhibited; 100% defined by 1 uM CP55940; read-out: CB2 EC50
Checkbox rule: EC50 lower than 9 nM = rule met; EC50 not lower than 9 nM = rule not met.

# TODO verify EC50 < 9 nM strictly for this compound: Cn1nc(C(C)(C)C)cc1-c1coc(C(C)(C)S(=O)(=O)c2ccc(F)cc2)n1
rule met

Does the reported EC50 of the following compound sit strictly below 9 nM? CC(C)(C)c1cc(-c2noc(C(C)(C)S(=O)(=O)c3ccc(F)cc3)n2)on1
rule met

Record CC(C)(C)c1cc(-c2nnc(C(C)(C)S(=O)(=O)c3ccc(Cl)cc3)o2)no1 : is its EC50 strictly below 9 nM?
rule met

Does the reported EC50 of CC(C)(C)c1cc(-c2nnc(C(C)(C)S(=O)(=O)c3ccc(Cl)cc3)o2)on1 stay below 9 nM?
rule met

Please state whether EC50 is below 9 nM for Cn1nc(C(C)(C)C)cc1-c1nnc(C(C)(C)S(=O)(=O)C2CCOCC2)s1
rule not met

# check: EC50 < 9 nM for Cn1nc(C(C)(C)C)cc1-c1nnc(C(C)(C)S(=O)(=O)Cc2ccc(F)cc2)[nH]1
rule not met

is_below(EC50, 9 nM) for CC(C)(C)c1cc(-c2nnc(C(C)(C)S(=O)(=O)c3ccc(F)cc3)[nH]2)on1 ?
rule not met

* * *

measured_on: human CB2R (Homo sapiens)
experiment: CB2R mediated modulation of cAMP synthesis
measurement_setup: CHO cells expressing human CB2R; concentration at which 50% of the forskolin-stimulated cAMP synthesis was inhibited; 100% defined by 1 uM CP55940; read-out: CB2 EC50
Rule: EC50 below 10 nM gives class 1, anything at or above gives class 0.

Please determine if CC(C)(C)c1cc(-c2nnc(C(C)(C)S(=O)(=O)c3ccc(F)cc3)s2)no1 is below 10 nM in terms of EC50.
class 0

State whether 10 nM exceeds EC50 recorded for CC(C)(C)c1cc(-c2nnc(C(C)(C)S(=O)(=O)C3CCOCC3)o2)on1 .
class 0

EC50 strictly < 10 nM for this molecule? CC(C)(CO)c1cc(-c2nnc(C(C)(C)S(=O)(=O)c3ccc(F)cc3)s2)on1
class 0

# TODO verify EC50 < 10 nM strictly for this molecule: Cn1nc(C(C)(C)C)cc1-c1nc(C(C)(C)S(=O)(=O)CC2CCOCC2)no1
class 1

Bench note: check whether CC(C)(C)c1cc(-c2noc(C(C)(C)S(=O)(=O)CC3CCOCC3)n2)on1 shows EC50 below 10 nM
class 0

Bench note: check whether CC(C)(C)c1cc(-c2nnc(C(C)(C)S(=O)(=O)CC3CCOCC3)[nH]2)on1 shows EC50 below 10 nM
class 0

Here's an entry: CC(C)(C)c1cc(-c2nnc(C(C)(C)S(=O)(=O)Cc3ccc(F)cc3)[nH]2)on1 . Is its EC50 below 10 nM?
class 0

Consider CC(C)(c1nc(C2CCCCC2)no1)S(=O)(=O)c1ccc(C(F)(F)F)cc1 . Does its EC50 lie strictly below 10 nM?
class 0

Please state whether EC50 is below 10 nM for Cn1nc(C(C)(C)C)cc1-c1nnc(C(C)(C)S(=O)(=O)c2ccc(F)cc2)s1
class 1

State whether 10 nM exceeds EC50 recorded for Cn1nc(C(C)(C)C)cc1-c1nnc(C(C)(C)S(=O)(=O)CC2CCOCC2)[nH]1 .
class 0

Identify whether the molecule Cn1nc(C(C)(C)C)cc1-c1nnc(C(C)(C)S(=O)(=O)CC2CCC(O)CC2)[nH]1 (stereo not shown) records EC50 below 10 nM.
class 0

Strictly below 10 nM: is that where EC50 of Cn1nc(C(C)(C)C)cc1-c1nnc(C2(S(=O)(=O)c3ccc(Cl)cc3)CC2)o1 sits?
class 1

# check: EC50 < 10 nM for Cn1nc(C(C)(C)C)cc1-c1nnc(C(C)(C)S(=O)(=O)c2ccc(F)cc2)[nH]1
class 1

Lab log: compare recorded EC50 with 10 nM; is it strictly lower for CC(C)(C)c1cc(-c2coc(C(C)(C)S(=O)(=O)c3ccc(Cl)cc3)n2)no1 ?
class 1

EC50 strictly < 10 nM for this molecule? CC(C)(C)c1cc(-c2nnc(C(C)(C)S(=O)(=O)c3ccc(F)cc3)s2)on1
class 1

Is EC50 strictly under 10 nM for the entry CC(C)(C)c1cc(-c2nc(C(C)(C)S(=O)(=O)c3ccc(F)cc3)no2)on1 ?
class 1

Identify whether the molecule CC(C)(C)c1cc(-c2nnc(C(C)(C)S(=O)(=O)CC3CCOCC3)o2)on1 records EC50 below 10 nM.
class 0

Is EC50 of Cc1ccc(S(=O)(=O)C(C)(C)c2nc(-c3cc(C(C)(C)C)nn3C)co2)cc1 strictly below 10 nM?
class 0

EC50 strictly < 10 nM for this molecule? Cn1nc(C(C)(C)C)cc1-c1coc(C(C)(C)S(=O)(=O)c2ccc(Cl)cc2F)n1
class 1

I'd appreciate it if you could check whether Cn1nc(C(C)(C)C)cc1-c1nnc(C(C)(C)S(=O)(=O)c2ccc(F)cc2)o1 has EC50 smaller than 10 nM.
class 0

Does the reported EC50 of Cn1nc(C(C)(C)C)cc1-c1nc(C(C)(C)S(=O)(=O)c2ccc(Cl)cc2)no1 stay below 10 nM?
class 1

Just wondering, is EC50 of Cn1nc(C(C)(C)C)cc1-c1nnc(C(C)(C)S(=O)(=O)c2ccc(Cl)cc2)[nH]1 below 10 nM?
class 0

Could you please tell me whether EC50 recorded for Cn1nc(C(C)(C)C)cc1-c1coc(C(C)(C)S(=O)(=O)C2CCCCC2)n1 is less than 10 nM?
class 0

Does CC(C)(C)c1cc(-c2nnc(C(C)(C)S(=O)(=O)Cc3ccc(F)cc3)o2)on1 have EC50 strictly under 10 nM?
class 0

Given CC(C)(C)c1cc(-c2nc(C(C)(C)S(=O)(=O)CC3CCOCC3)no2)on1 , is recorded EC50 strictly lower than 10 nM?
class 0

I'd appreciate it if you could check whether Cn1nc(C(C)(C)C)cc1-c1cnc(C(C)(C)S(=O)(=O)c2ccc(Cl)cc2)o1 has EC50 smaller than 10 nM.
class 0

# strict comparison: is reported EC50 < 10 nM? input = CC(C)(C)c1cc(-c2noc(C(C)(C)S(=O)(=O)c3ccc(C(F)(F)F)cc3)n2)on1
class 1

Given the entry Cn1nc(C(C)(C)C)cc1-c1coc(C(C)(C)S(=O)(=O)CC2CCOCC2)n1 , would its reported EC50 be below 10 nM?
class 0

A record lists Cn1nc(C(C)(C)C)cc1-c1cnc(C(C)(C)S(=O)(=O)c2ccc(F)cc2)o1 . Is its EC50 below 10 nM?
class 1

# strict comparison: is reported EC50 < 10 nM? input = CC(C)(C)c1cc(-c2nnc(C(C)(C)S(=O)(=O)c3ccc(F)cc3)o2)no1
class 0

Is EC50 strictly under 10 nM for the entry Cn1nc(C(C)(C)C)cc1-c1coc(C(C)(C)S(=O)(=O)c2ccc(Cl)cc2)n1 ?
class 1
